Tested on: MOLT-4 human leukemia cell line
Assay: cells
Conditions: Homo sapiens, MOLT-4, 72 h
measurement.name: pEC50
One number for each entry, as −log10 of the molar value.

>>> observed_result("COc1cc2c(cc1O)CCN[C@]21CS[C@@H]2c3c(OC(C)=O)c(C)c4c(c3[C@H](COC1=O)N1[C@@H]2[C@H]2c3c(cc(C)c(OC)c3O)C[C@@H]([C@@H]1O)N2C)OCO4 [ET-743, trabectedin]")
8.42

Provide reported pEC50 for each item, in the same order as listed.
1. CN(Cc1cnc2nc(N)nc(N)c2n1)c1ccc(C(=O)N[C@@H](CCC(=O)O)C(=O)O)cc1 [Methotrexate, methotrexate]
2. COc1ccc2[nH]c3c(c2c1)CCN[C@]31CS[C@@H]2c3c(OC(C)=O)c(C)c4c(c3[C@H](COC1=O)N1[C@@H]2[C@H]2c3c(cc(C)c(OC)c3O)C[C@@H]([C@@H]1O)N2C)OCO4 [PM01183]
3. COc1c(C)cc2c(c1O)[C@@H]1[C@@H]3Cc4c(OC(C)=O)c(C)c5c(c4[C@H](CNC(=O)/C=C/c4cccc(C(F)(F)F)c4)N3[C@@H](O)[C@H](C2)N1C)OCO5 [PM00104]

Result:
1. 7.36
2. 9.07
3. 8.81

Measured values drawn from patent US11590129B2 for this set.
